assay: solvent given as SMILES; details: in CN(C)C=O
observable: absorption maximum (nm)
Respond with the bare value in nm.

The molecule identified as O=[N+]([O-])c1ccc(NCCN(Cc2c3ccccc3cc3ccccc23)c2ccc([N+](=O)[O-])cc2[N+](=O)[O-])c([N+](=O)[O-])c1 registered its absorption maximum at 267

Given item CCN(CC)c1ccc2c(-c3ccc(S(=O)(=O)O)cc3S(=O)(=O)[O-])c3ccc(=[N+](CC)CC)cc-3oc2c1 , the value recorded as its absorption maximum is 554

Looking up COC(=O)c1ccc2ccc3cccc4ccc1c2c34 , I found its absorption maximum recorded as 380

Reported absorption maximum ( CCC1=C(C)C2=C(c3c4ccccc4c(-c4ccccc4)c4ccccc34)c3c(C)c(CC)c(C)n3[B-](F)(F)[N+]2=C1C ) = 530

The molecule listed as O=C(c1ccc(N(c2ccccc2)c2ccccc2)cc1)[C@H]1[C@H](c2cccs2)C[C@](O)(c2ccccn2)C[C@]1(O)c1ccccn1 shows absorption maximum equal to 358

// recorded absorption maximum for CN(C)CCN(Cc1c2ccccc2cc2ccccc12)c1ccc([N+](=O)[O-])cc1[N+](=O)[O-] : 395

The molecule identified as O=C(O)c1ccc2cc3cc(C(=O)O)ccc3cc2c1 registered its absorption maximum at 409

What the record says about CCn1c2ccccc2c2cc(-c3cc(-c4ccc5c(c4)c4ccccc4n5CC)nc(N4CCCCC4)n3)ccc21 : absorption maximum is 370

---

experiment: solvent given as SMILES; settings: in CC(C)O
observable: absorption maximum (nm)
API: value field is a number in nm; no unit string.

Data point: O=S(=O)([O-])c1ccc(O)c2ccccc12 ; absorption maximum = 321

Value of absorption maximum reported for the compound O=C1c2ccccc2C(=O)N1c1ccc(Cn2cncn2)cc1 is 306

Reported absorption maximum of O=C1c2ccc3c4ccc5c6c(ccc(c7ccc(c2c37)C(=O)N1c1ccncc1)c64)C(=O)N(c1ccncc1)C5=O : 525

Sure, the documented absorption maximum for CN(CC(O)c1cccc(O)c1)c1ccc([N+](=O)[O-])c(C2CC(c3cccc4ccccc34)=NN2c2ccccc2)c1 (stereo not given) is 412

The reported value for CC1(C)CCc2c(c3ccccc3c3nc4c5c(c6ccccc6c4nc23)OC(C)(C)CC5)O1 in terms of absorption maximum is 454.96

Reported absorption maximum ( O=C([O-])c1c(Cl)c(Cl)c(Cl)c(Cl)c1-c1c2cc(I)c(=O)c(I)c-2oc2c(I)c([O-])c(I)cc12 ) = 561

Form field absorption maximum, entry CCN(CC)c1cccc(C=O)c1 : 382

// absorption maximum lookup, compound = C[n+]1ccc(-c2ccc([O-])cc2)cc1 , result: 457

Entry Fc1ccc(-c2nc3n(c2-c2ccncc2)CCS3)cc1 , absorption maximum reported as 328

Lab note: measured absorption maximum of COCCOc1cc(C=O)c(OCCOC)cc1C=O was 390

---

For each record, write down the corresponding absorption maximum.
experiment: solvent given as SMILES; details: in C1COCCO1
Numeric only. Scale: nm

Lab book: absorption maximum of Cc1ccc(-c2cc(-c3ccccc3)c(C#N)c(=S)[nH]2)cc1 noted as 442

Quick note, absorption maximum for CNc1ncc2nc(C#N)n(Cc3ccccc3)c2n1 landed at 342

The reported value for O=[N+]([O-])c1ccc(F)cc1C1CC(c2cccc3ccccc23)=NN1c1ccccc1 (stereo not given) in terms of absorption maximum is 372

Value of measured absorption maximum for the entry CC1=C(C(C)(C)C)C(C)=[N+]2C1=C(C)c1c(C)c(C(C)(C)C)c(C)n1[B-]2(F)F : 525.1

Per the record, CC/C=C/C=C/C=C/C=C/CCCCCCCC(=O)O has absorption maximum of 317.3

---

test: solvent given as SMILES; details: in CCO
Outcome label depends on absorption maximum relative to 400 nm: at/above gives Y, below gives N.

Does the compound O=C(c1ccc(N(c2ccccc2)c2ccccc2)cc1)[C@H]1[C@H](c2cccs2)C[C@](O)(c2ccccn2)C[C@]1(O)c1ccccn1 have recorded absorption maximum that is 400 nm or more?
N

Hello, I need to know if CN(C)c1cc2oc3cc(N(C)C)c(F)cc3c(=O)c2cc1F has measured absorption maximum not below 400 nm. Thanks!
N

Kindly determine if absorption maximum recorded for COc1ccc2cc3c(C)cc(=O)oc3cc2c1 is above or exactly 400 nm.
N

Dear colleague, could you confirm whether CC1(C)C(/C=C/c2cc3ccc(O)cc3oc2=O)=[N+](CCCS(=O)(=O)[O-])c2ccc(S(=O)(=O)O)cc21 has absorption maximum at or above 400 nm?
Y

Evaluate CN1/C(=C/C=C(/C=C/c2sc3ccccc3[n+]2C)c2cc(F)cc(F)c2)Sc2ccccc21 : absorption maximum at minimum 400 nm?
Y

Determine whether this compound has absorption maximum no lower than 400 nm: Fc1ccc(-c2nc3n(c2-c2ccncc2)CCS3)cc1
N

Dear colleague, could you confirm whether Cc1cc(=O)oc2c1cc(Br)c1occ(C)c12 has absorption maximum at or above 400 nm?
N

Answer whether absorption maximum of O=[N+]([O-])c1ccc(NCCN(Cc2c3ccccc3cc3ccccc23)c2ccc([N+](=O)[O-])cc2[N+](=O)[O-])c([N+](=O)[O-])c1 is greater than or equal to 400 nm.
N

Given the entry CCCCN1C(=O)C(=CC=C2N(CCCC)c3ccccc3N2CCCC)C(=O)N(CCCC)C1=S , answer whether its absorption maximum meets or surpasses 400 nm.
Y

Reported absorption maximum at or above 400 nm? CC1(C)Nc2cc3nc4cc(Cl)c(Cl)cc4nc3cc2N1
Y

Would you say CN1c2cc3nc4cc(Cl)c(Cl)cc4nc3cc2N(C)C1(C)C shows absorption maximum at minimum 400 nm?
Y

Dear colleague, could you confirm whether Cc1ccc(/C=C/c2ccccc2-[n+]2noc([O-])c2-c2ccccc2)cc1 has absorption maximum at or above 400 nm?
N

Hello, I need to know if COc1ccc2c(=O)c3c([nH]c2c1)-c1ccccc1NC3(C)C has measured absorption maximum not below 400 nm. Thanks!
Y

Entry CN(C)c1ccc(/C=C/c2ccc(C#N)cc2)cc1 : is its absorption maximum no less than 400 nm?
N

Given the entry CCC1=C(C)C2=Cc3cccn3[B-](F)(F)[N+]2=C1C , answer whether its absorption maximum meets or surpasses 400 nm.
Y

// inclusive: absorption maximum at least 400 nm? input: CN(C)c1ccc2c(-c3cc(N)ccc3C(=O)[O-])c3ccc(=[N+](C)C)cc-3oc2c1
Y

---

experiment: solvent given as SMILES; conditions: in O
Assignment: determine reported absorption maximum for the given compounds.
Hi! Could you send only the number? It should be in nm, unit omitted.

Notebook: N#Cc1cccc2cc[nH]c12 , absorption maximum read as 308

The recorded absorption maximum for CN(C)c1ccc2cc3ccc(=[N+](C)C)cc-3oc2c1 is 548

Form: compound = CCOC(=O)c1ccccc1-c1c2ccc(=[N+](CC)CC)cc-2oc2c1c(=O)oc1cc(N(CC)CC)ccc12 ; absorption maximum = 596

absorption maximum reported for this compound Cc1cc(-c2ccc(-c3n(C)c4ccccc4[n+]3C)cc2)ccc1-c1ccc(-c2n(C)c3ccccc3[n+]2C)cc1 : 299

Value of absorption maximum reported for the compound COc1ccccc1C1=C2C=CC(=[N+](C)C)C=C2[Si](C)(C)c2cc(N(C)C)ccc21 is 649

The reported absorption maximum of the compound CC(C)c1cc(N(C)C)c(C#N)c2c1-c1cccc3cccc-2c13 was 430

compound CN(C)c1ccc2cc3c(cc2c1)OCCN=C3 , absorption maximum observed: 451

Notebook: O=c1oc2ccc(Br)cc2cc1-c1cc2cc(Br)ccc2o1 , absorption maximum read as 331

Form field absorption maximum, entry O=C(NCc1cc(=O)oc2cc([O-])c(Br)cc12)c1cccnc1 : 370

Recorded absorption maximum (compound CN1/C(=C/C=C(/C=C/C2=[N+](C)c3ccccc3C2(C)C)c2cc(F)cc(F)c2)C(C)(C)c2ccccc21 ): 631

---

test: solvent given as SMILES; conditions: in ClC(Cl)Cl
I'd be grateful if you could share measured absorption maximum for these entries.
Number in nm, nothing else.

Entry under test: CN(c1ccccc1)c1ccc(-c2ccc(-c3ccc(N(C)c4ccccc4)cc3)c3nc(-c4ccccc4)c(-c4ccccc4)nc23)cc1 . Its absorption maximum was 476

So for c1cc2ccc1CCCc1cc3c(cc1CCCc1ccc(c4nsnc14)CCC3)CCC2 , the logged absorption maximum turned out to be 402

Consider CCOC(=O)C(C(=O)OCC)C1=[N+]2C(=C(c3ccc(C)cc3)c3ccc(C(C(=O)OCC)C(=O)OCC)n3[B-]2(F)F)C=C1 . Its measured absorption maximum is 513

The reported absorption maximum of the molecule CCCCCCC(CCCCCC)N1C(=O)c2cccc3c(-c4cc(OC)c(OC)c(OC)c4)ccc(c23)C1=O was 362.2

CCCCCCCCCCCCSc1cc2c3c(ccc4c5c(SCCCCCCCCCCCC)cc6c7c(ccc(c1c34)c75)C(=O)N(C1CCCCC1)C6=O)C(=O)N(C1CCCCC1)C2=O has a reported absorption maximum of 574

Recorded absorption maximum (molecule C(#Cc1ccccc1)C(C#Cc1ccccc1)=Cc1ccc2cc(C=C(C#Cc3ccccc3)C#Cc3ccccc3)ccc2c1 ): 418

get_value(item= CC1=[N+]2C(=C(c3c4ccccc4cc4ccccc34)c3ccc(/C=C/C(C)(C)C)n3[B-]2(F)F)C=C1 , readout=absorption maximum) returns 549

The reported value for CN(C)c1ccc2nc(/C=C/c3ccccc3)c(=O)oc2c1 in terms of absorption maximum is 467
